FYI, the data here is from PubChem BioAssay AID1347420.

- ASSAYED_SYSTEM: Sulfhydryl oxidase 1 (Homo sapiens) (UniProt O00391)
- Sequence (O00391 whole entry, looked up): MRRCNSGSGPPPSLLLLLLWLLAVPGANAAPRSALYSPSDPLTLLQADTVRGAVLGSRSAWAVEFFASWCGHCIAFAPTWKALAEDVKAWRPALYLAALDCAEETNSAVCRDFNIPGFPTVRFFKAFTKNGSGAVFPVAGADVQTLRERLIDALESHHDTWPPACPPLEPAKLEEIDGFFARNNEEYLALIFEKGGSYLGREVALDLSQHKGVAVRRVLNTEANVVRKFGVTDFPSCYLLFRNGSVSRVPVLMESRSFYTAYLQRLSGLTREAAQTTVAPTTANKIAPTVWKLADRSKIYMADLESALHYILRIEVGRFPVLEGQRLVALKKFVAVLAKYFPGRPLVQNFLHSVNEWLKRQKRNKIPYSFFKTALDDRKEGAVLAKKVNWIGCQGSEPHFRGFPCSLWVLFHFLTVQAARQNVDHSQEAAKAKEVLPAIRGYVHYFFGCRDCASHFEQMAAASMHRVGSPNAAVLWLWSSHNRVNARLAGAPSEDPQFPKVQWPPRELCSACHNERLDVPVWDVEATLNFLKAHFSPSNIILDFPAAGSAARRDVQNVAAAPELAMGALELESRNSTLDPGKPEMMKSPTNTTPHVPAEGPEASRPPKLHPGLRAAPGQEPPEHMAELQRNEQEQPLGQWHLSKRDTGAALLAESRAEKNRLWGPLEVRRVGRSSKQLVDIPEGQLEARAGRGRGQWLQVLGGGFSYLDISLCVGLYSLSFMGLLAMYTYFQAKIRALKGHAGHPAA
- PROTOCOL: inhibition of human sulfhydryl oxidase QSOX1 – biochemical, HyperBlu H2O2 luminescence, HTS, primary screen (AID 1347420); further: values above 100% were filed as inconclusive
- TEST_PARAMETERS: recombinant QSOX1, HyperBlu H2O2 luminescence; at 12.5 µM; hits give high values; active = any value above zero
The whole screen tested about 1,300 compounds, of which about 980 (75%) were called active. About 4% were inconclusive and are not listed. The list shows a part of the results.
Classes used: active, inactive

>>> df
                                    compound                            assayed_system       cat
 0  NC(C(=O)N[C@@H]1C(=O)N2C(C(=O)O)=C(Cl)CS[C@H]12)c1ccccc1 (stereo partly drawn)  Sulfhydryl oxidase 1 (Homo sapiens) (UniProt O00391)    active
 1  CN(C)[C@@H]1C(=O)C(C(N)=O)=C(O)[C@@]2(O)C(=O)C3=C(O)c4c(O)ccc(Cl)c4[C@@H](O)[C@H]3C[C@@H]12  Sulfhydryl oxidase 1 (Homo sapiens) (UniProt O00391)    active
 2         O=C(/C=C/c1ccc(O)cc1)c1ccc(O)cc1O  Sulfhydryl oxidase 1 (Homo sapiens) (UniProt O00391)    active
 3                  NC[C@H](O)c1ccc(O)c(O)c1  Sulfhydryl oxidase 1 (Homo sapiens) (UniProt O00391)    active
 4  O=C1N=C([O-])CN1/N=C/C1=C[C+]=C(c2ccc([N+](=O)[O-])cc2)O1  Sulfhydryl oxidase 1 (Homo sapiens) (UniProt O00391)    active
 5  O=C(O)CCC(C(=O)O)N1C(=O)c2ccccc2C1=O (stereo not drawn)  Sulfhydryl oxidase 1 (Homo sapiens) (UniProt O00391)  inactive
 6    O=C(Nc1ccncc1)c1cc([N+](=O)[O-])ccc1Cl  Sulfhydryl oxidase 1 (Homo sapiens) (UniProt O00391)    active
 7  O=C(Nc1ccc([N+](=O)[O-])cc1Cl)c1cc(Cl)ccc1O  Sulfhydryl oxidase 1 (Homo sapiens) (UniProt O00391)    active
 8  CC1=C(C)C(=O)C(CCCCC#CCCCC#CCO)=C(C)C1=O  Sulfhydryl oxidase 1 (Homo sapiens) (UniProt O00391)    active
 9  CC(N)(C(=O)O)c1ccc(C(=O)O)cc1 (stereo not drawn)  Sulfhydryl oxidase 1 (Homo sapiens) (UniProt O00391)    active
10  CCCN(CCC)C(=O)C(CCC(=O)O)NC(=O)c1ccccc1 (stereo not drawn)  Sulfhydryl oxidase 1 (Homo sapiens) (UniProt O00391)    active
11  NC(=O)c1cc[n+](CC2=C(C(=O)O)N3C(=O)[C@@H](NC(=O)[C@@H](c4ccccc4)S(=O)(=O)[O-])[C@H]3SC2)cc1  Sulfhydryl oxidase 1 (Homo sapiens) (UniProt O00391)    active
12    O=C(Nc1ccccc1)c1cc([N+](=O)[O-])ccc1Cl  Sulfhydryl oxidase 1 (Homo sapiens) (UniProt O00391)    active
13  CCCCCN(CCCCC)C(=O)C(CCC(=O)O)NC(=O)c1ccc(Cl)c(Cl)c1 (stereo not drawn)  Sulfhydryl oxidase 1 (Homo sapiens) (UniProt O00391)    active
14  C=C[C@H]1CN2CC[C@@H]1C[C@H]2[C@@H](O)c1ccnc2ccc(OC)cc12  Sulfhydryl oxidase 1 (Homo sapiens) (UniProt O00391)  inactive
15  C[C@H]1CC2C3CCC4=CC(=O)C=C[C@]4(C)[C@@]3(Cl)[C@@H](O)C[C@]2(C)[C@@]1(O)C(=O)CO (stereo partly drawn)  Sulfhydryl oxidase 1 (Homo sapiens) (UniProt O00391)  inactive
16             O=C(O)c1cc(=O)cc(C(=O)O)[nH]1  Sulfhydryl oxidase 1 (Homo sapiens) (UniProt O00391)    active
17                                 CCSC(=N)N  Sulfhydryl oxidase 1 (Homo sapiens) (UniProt O00391)    active
18                   O=c1[nH]cc(F)c(=O)[nH]1  Sulfhydryl oxidase 1 (Homo sapiens) (UniProt O00391)    active
19  CC1=C(C(=O)O)N2C(=O)[C@@H](NC(=O)C(N)c3ccccc3)[C@H]2SC1 (stereo partly drawn)  Sulfhydryl oxidase 1 (Homo sapiens) (UniProt O00391)    active
20                 CN(C)C(=O)/N=N/C(=O)N(C)C  Sulfhydryl oxidase 1 (Homo sapiens) (UniProt O00391)    active
21              N=C(N)SCCc1ccc(CCSC(=N)N)cc1  Sulfhydryl oxidase 1 (Homo sapiens) (UniProt O00391)    active
22  NC(CO)C(=O)NNCc1ccc(O)c(O)c1O (stereo not drawn)  Sulfhydryl oxidase 1 (Homo sapiens) (UniProt O00391)    active
23       CCCCCN(C)CCC(O)(P(=O)(O)O)P(=O)(O)O  Sulfhydryl oxidase 1 (Homo sapiens) (UniProt O00391)  inactive
24          C[C@](Cc1ccc(O)c(O)c1)(NN)C(=O)O  Sulfhydryl oxidase 1 (Homo sapiens) (UniProt O00391)    active
25  CC1CC2C3CCC4=CC(=O)C=C[C@]4(C)[C@@]3(F)[C@@H](O)C[C@]2(C)[C@@]1(O)C(=O)CO (stereo partly drawn)  Sulfhydryl oxidase 1 (Homo sapiens) (UniProt O00391)    active
26   CCCn1c(=O)c2[nH]c(C3CCCC3)nc2n(CCC)c1=O  Sulfhydryl oxidase 1 (Homo sapiens) (UniProt O00391)    active
27  COc1cccc(C(=O)NCCN2CCN(c3ccc(Cl)cc3)CC2)c1  Sulfhydryl oxidase 1 (Homo sapiens) (UniProt O00391)    active
28  CN1Cc2sccc2C(c2ccc(O)c(O)c2)C1 (stereo not drawn)  Sulfhydryl oxidase 1 (Homo sapiens) (UniProt O00391)    active
29  Cc1ccc2nc(CN(CCN(Cc3nc4ccc(C)cc4[nH]3)Cc3nc4ccc(C)cc4[nH]3)Cc3nc4ccc(C)cc4[nH]3)[nH]c2c1  Sulfhydryl oxidase 1 (Homo sapiens) (UniProt O00391)  inactive
30  CCNC(=O)[C@H]1O[C@@H](n2cnc3c(N)nc(NCCc4ccc(CCC(=O)O)cc4)nc32)C(O)[C@H]1O (stereo partly drawn)  Sulfhydryl oxidase 1 (Homo sapiens) (UniProt O00391)    active
31  C=C1N=C(N=NC2=C(S(=O)(=O)[O-])[C+]=C(S(=O)(=O)[O-])[C+]=C2)[C+](COP(=O)([O-])O)C(C=O)=C1O  Sulfhydryl oxidase 1 (Homo sapiens) (UniProt O00391)    active
32  OC(CN1CCC(Cc2ccc(F)cc2)CC1)c1ccc(Cl)cc1 (stereo not drawn)  Sulfhydryl oxidase 1 (Homo sapiens) (UniProt O00391)    active
33  O=C(O)c1cc([N+](=O)[O-])ccc1NCCCc1ccccc1  Sulfhydryl oxidase 1 (Homo sapiens) (UniProt O00391)    active
34  Cc1cnc(NC(=O)C2=C(O)c3ccccc3S(=O)(=O)N2C)s1  Sulfhydryl oxidase 1 (Homo sapiens) (UniProt O00391)    active
35  CN1C(C(=O)Nc2ccccn2)=C(O)c2ccccc2S1(=O)=O  Sulfhydryl oxidase 1 (Homo sapiens) (UniProt O00391)    active
36  CCOC(=O)N1CCC(=C2c3ccc(Cl)cc3CCc3cccnc32)CC1  Sulfhydryl oxidase 1 (Homo sapiens) (UniProt O00391)    active
37   NCC(O)c1ccc(O)c(O)c1 (stereo not drawn)  Sulfhydryl oxidase 1 (Homo sapiens) (UniProt O00391)    active
38  CC(N)(Cc1ccc(O)c(O)c1)C(=O)O (stereo not drawn)  Sulfhydryl oxidase 1 (Homo sapiens) (UniProt O00391)    active
39  CCNC(=O)N1CCN(CCCC(c2ccc(F)cc2)c2ccc(F)cc2)CC1  Sulfhydryl oxidase 1 (Homo sapiens) (UniProt O00391)    active
40             NC(=O)CNCCC(c1ccccc1)c1ccccc1  Sulfhydryl oxidase 1 (Homo sapiens) (UniProt O00391)    active
41  Oc1ccc(C2CNCc3sccc32)cc1O (stereo not drawn)  Sulfhydryl oxidase 1 (Homo sapiens) (UniProt O00391)    active
42  C[C@]12CC[C@@H]3c4ccc(O)cc4C[C@@H](CCCCCCCCCS(=O)CCCC(F)(F)C(F)(F)F)[C@H]3[C@@H]1CC[C@@H]2O (stereo partly drawn)  Sulfhydryl oxidase 1 (Homo sapiens) (UniProt O00391)    active
